System: 855422-203-R-J1-PDC spheroids with HUVEC/MSC, viability
Test: Anticancer human tumor 855422-203-R-J1-PDC patient-derived bladder carcinoma cell line growth inhibition [PI3K]
Conditions: second compound 0.01 µM; first compound 0.316 µM; stronger effect = lower value
Would you mind telling me the reported viability, T/C of each entry?

Some solved cases for reference:
1) CNC(=O)c1ccc(N2C(=S)N(c3ccc(C#N)c(C(F)(F)F)c3)C(=O)C2(C)C)cc1F + CC(Nc1ccc2c(c1)OCCn1cc(N3C(=O)OCC3C(F)F)nc1-2)C(N)=O	90%
2) C[C@@H](NC(=O)c1ncnc(N)c1Cl)c1ncc(C(=O)Nc2cc(C(F)(F)F)c(Cl)cn2)s1 + COc1c(OCCCN2CCOCC2)ccc2c3n(c(=NC(=O)c4cnc(N)nc4)nc12)CCN3	88.5%
3) CCCS(=O)(=O)Nc1ccc(F)c(C(=O)c2c[nH]c3ncc(-c4ccc(Cl)cc4)cc23)c1F + CC(Nc1ccc2c(c1)OCCn1cc(N3C(=O)OCC3C(F)F)nc1-2)C(N)=O	91.8%
4) CC(C)NCC(C(=O)N1CCN(c2ncnc3c2C(C)CC3O)CC1)c1ccc(Cl)cc1 (centres undefined) + CC(Nc1ccc2c(c1)OCCn1cc(N3C(=O)OCC3C(F)F)nc1-2)C(N)=O	71.3%
5) CC1(C)CCC(CN2CCN(c3ccc(C(=O)NS(=O)(=O)c4ccc(NCC5CCOCC5)c([N+](=O)[O-])c4)c(Oc4cnc5[nH]ccc5c4)c3)CC2)=C(c2ccc(Cl)cc2)C1 + COc1c(OCCCN2CCOCC2)ccc2c3n(c(=NC(=O)c4cnc(N)nc4)nc12)CCN3	78.3%
6) CCCS(=O)(=O)Nc1ccc(F)c(C(=O)c2c[nH]c3ncc(-c4ccc(Cl)cc4)cc23)c1F + COc1c(OCCCN2CCOCC2)ccc2c3n(c(=NC(=O)c4cnc(N)nc4)nc12)CCN3	83%

Quick request: viability, T/C for each listed item, please.
1. CC1(C)CCC(Nc2ncc(C(F)(F)F)c(-c3c[nH]c4c(P(C)(C)=O)c(C#N)ccc34)n2)CN1 (centres undefined) + CC(Nc1ccc2c(c1)OCCn1cc(N3C(=O)OCC3C(F)F)nc1-2)C(N)=O
2. Cn1ncc(Cl)c1-c1cc(C(=O)NC(CN)Cc2cccc(F)c2)sc1Cl (centres undefined) + CC(Nc1ccc2c(c1)OCCn1cc(N3C(=O)OCC3C(F)F)nc1-2)C(N)=O
3. C[C@@H](NC(=O)c1ncnc(N)c1Cl)c1ncc(C(=O)Nc2cc(C(F)(F)F)c(Cl)cn2)s1 + CC(Nc1ccc2c(c1)OCCn1cc(N3C(=O)OCC3C(F)F)nc1-2)C(N)=O

Reply:
["26.2%", "64.7%", "85.4%"]

---

Tested on: 855422-203-R-J1-PDC spheroids with HUVEC/MSC, viability
Assay: Anticancer human tumor 855422-203-R-J1-PDC cell line growth inhibition [PI3K];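 note: agents incubated with spheroids for one week before read-out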
Conditions: curve of first compound; second compound 0.01 µM
For each entry below, report its IC50 value.

1) CNC(=O)c1ccc(N2C(=S)N(c3ccc(C#N)c(C(F)(F)F)c3)C(=O)C2(C)C)cc1F + COc1c(OCCCN2CCOCC2)ccc2c3n(c(=NC(=O)c4cnc(N)nc4)nc12)CCN3	> 10 µM
2) CC(=O)c1c(C)c2cnc(Nc3ccc(N4CCNCC4)cn3)nc2n(C2CCCC2)c1=O + CC(Nc1ccc2c(c1)OCCn1cc(N3C(=O)OCC3C(F)F)nc1-2)C(N)=O	> 0.1 µM
3) Cn1ncnc1[C@H]1c2n[nH]c(=O)c3cc(F)cc(c23)N[C@@H]1c1ccc(F)cc1 + CC(Nc1ccc2c(c1)OCCn1cc(N3C(=O)OCC3C(F)F)nc1-2)C(N)=O	> 0.1 µM
4) Cn1ncc(Cl)c1-c1cc(C(=O)NC(CN)Cc2cccc(F)c2)sc1Cl (stereo not given) + COc1c(OCCCN2CCOCC2)ccc2c3n(c(=NC(=O)c4cnc(N)nc4)nc12)CCN3	0.624 µM
5) C[C@@H](NC(=O)c1ncnc(N)c1Cl)c1ncc(C(=O)Nc2cc(C(F)(F)F)c(Cl)cn2)s1 + CC(Nc1ccc2c(c1)OCCn1cc(N3C(=O)OCC3C(F)F)nc1-2)C(N)=O	> 10 µM
6) CC1(C)CCC(CN2CCN(c3ccc(C(=O)NS(=O)(=O)c4ccc(NCC5CCOCC5)c([N+](=O)[O-])c4)c(Oc4cnc5[nH]ccc5c4)c3)CC2)=C(c2ccc(Cl)cc2)C1 + COc1c(OCCCN2CCOCC2)ccc2c3n(c(=NC(=O)c4cnc(N)nc4)nc12)CCN3	5.04 µM
7) CNC(=O)c1ccc(N2C(=S)N(c3ccc(C#N)c(C(F)(F)F)c3)C(=O)C2(C)C)cc1F + CC(Nc1ccc2c(c1)OCCn1cc(N3C(=O)OCC3C(F)F)nc1-2)C(N)=O	> 10 µM
8) CCN1CCN(Cc2ccc(Nc3ncc(F)c(-c4cc(F)c5nc(C)n(C(C)C)c5c4)n3)nc2)CC1 + COc1c(OCCCN2CCOCC2)ccc2c3n(c(=NC(=O)c4cnc(N)nc4)nc12)CCN3	0.409 µM
9) C#Cc1c(F)ccc2cc(O)cc(-c3ncc4c(N5CC6CCC(C5)N6)nc(OCC56CCCN5CC(F)C6)nc4c3F)c12 (stereo not given) + CC(Nc1ccc2c(c1)OCCn1cc(N3C(=O)OCC3C(F)F)nc1-2)C(N)=O	> 10 µM

The reported 855422-203-R-J1-PDC spheroids with HUVEC/MSC, viability IC50 of CCCS(=O)(=O)Nc1ccc(F)c(C(=O)c2c[nH]c3ncc(-c4ccc(Cl)cc4)cc23)c1F + CC(Nc1ccc2c(c1)OCCn1cc(N3C(=O)OCC3C(F)F)nc1-2)C(N)=O is 4.55 µM

---

Test system: 855422-203-R-J1-PDC spheroids with HUVEC/MSC, viability
Assay: Anticancer human tumor 855422-203-R-J1-PDC cell line growth inhibition [PI3K];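 note: agents incubated with spheroids for one week before read-out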
Settings: curve of first compound; second compound 0.316 µM
I'd be grateful if you could share measured IC50 for these entries.

# example entries with known answers
1. CC1(C)CCC(CN2CCN(c3ccc(C(=O)NS(=O)(=O)c4ccc(NCC5CCOCC5)c([N+](=O)[O-])c4)c(Oc4cnc5[nH]ccc5c4)c3)CC2)=C(c2ccc(Cl)cc2)C1 + COc1c(OCCCN2CCOCC2)ccc2c3n(c(=NC(=O)c4cnc(N)nc4)nc12)CCN3	< 0.0316 µM
2. C#Cc1c(F)ccc2cc(O)cc(-c3ncc4c(N5CC6CCC(C5)N6)nc(OCC56CCCN5CC(F)C6)nc4c3F)c12 (stereo unspecified) + CC(Nc1ncnc2nc[nH]c12)c1cc2cccc(Cl)c2c(=O)n1-c1ccccc1	> 10 µM
3. C[C@@H](NC(=O)c1ncnc(N)c1Cl)c1ncc(C(=O)Nc2cc(C(F)(F)F)c(Cl)cn2)s1 + CC(Nc1ncnc2nc[nH]c12)c1cc2cccc(Cl)c2c(=O)n1-c1ccccc1	> 10 µM
4. CC1(C)CCC(Nc2ncc(C(F)(F)F)c(-c3c[nH]c4c(P(C)(C)=O)c(C#N)ccc34)n2)CN1 (stereo unspecified) + CC(Nc1ccc2c(c1)OCCn1cc(N3C(=O)OCC3C(F)F)nc1-2)C(N)=O	< 0.0316 µM
5. C#Cc1c(F)ccc2cc(O)cc(-c3ncc4c(N5CC6CCC(C5)N6)nc(OCC56CCCN5CC(F)C6)nc4c3F)c12 (stereo unspecified) + COc1c(OCCCN2CCOCC2)ccc2c3n(c(=NC(=O)c4cnc(N)nc4)nc12)CCN3	< 0.0316 µM

Continue with the compound presented below.
Entry C=CC(=O)N1CCN(c2nc(=O)n(-c3c(C)ccnc3C(C)C)c3nc(-c4c(O)cccc4F)c(F)cc23)C(C)C1 (stereo unspecified) + CC(Nc1ncnc2nc[nH]c12)c1cc2cccc(Cl)c2c(=O)n1-c1ccccc1 , 855422-203-R-J1-PDC spheroids with HUVEC/MSC, viability data, IC50 value: > 10 µM

---

Tested on: 855422-203-R-J1-PDC spheroids with HUVEC/MSC, viability
Test: Anticancer human tumor 855422-203-R-J1-PDC cell line growth inhibition [PI3K];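 note: agents incubated with spheroids for one week before read-out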;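 for viability, T/C: 100% = DMSO vehicle-treated control wells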
Details: second compound 0.316 µM; first compound 1 µM; stronger effect = lower value
Quantity: viability, T/C (%)
One number for each entry, in %.

1) CC(C)NCC(C(=O)N1CCN(c2ncnc3c2C(C)CC3O)CC1)c1ccc(Cl)cc1 (stereo not drawn) + CC(Nc1ncnc2nc[nH]c12)c1cc2cccc(Cl)c2c(=O)n1-c1ccccc1	51.7
2) C#Cc1c(F)ccc2cc(O)cc(-c3ncc4c(N5CC6CCC(C5)N6)nc(OCC56CCCN5CC(F)C6)nc4c3F)c12 (stereo not drawn) + Cc1nc(NC(=O)N2CCCC2C(N)=O)sc1-c1ccnc(C(C)(C)C(F)(F)F)c1	94.4
3) CCCS(=O)(=O)Nc1ccc(F)c(C(=O)c2c[nH]c3ncc(-c4ccc(Cl)cc4)cc23)c1F + CC(Nc1ccc2c(c1)OCCn1cc(N3C(=O)OCC3C(F)F)nc1-2)C(N)=O	48.9
4) Cn1nccc1Nc1nccc(-c2ccn(C(CO)c3ccc(Cl)c(F)c3)c(=O)c2)n1 (stereo not drawn) + COc1c(OCCCN2CCOCC2)ccc2c3n(c(=NC(=O)c4cnc(N)nc4)nc12)CCN3	3.86
5) Cn1nccc1Nc1nccc(-c2ccn(C(CO)c3ccc(Cl)c(F)c3)c(=O)c2)n1 (stereo not drawn) + CC(Nc1ccc2c(c1)OCCn1cc(N3C(=O)OCC3C(F)F)nc1-2)C(N)=O	49.5

For each of the molecules below, note its viability, T/C.
1. CC1(C)CCC(CN2CCN(c3ccc(C(=O)NS(=O)(=O)c4ccc(NCC5CCOCC5)c([N+](=O)[O-])c4)c(Oc4cnc5[nH]ccc5c4)c3)CC2)=C(c2ccc(Cl)cc2)C1 + CC(Nc1ncnc2nc[nH]c12)c1cc2cccc(Cl)c2c(=O)n1-c1ccccc1
2. CC1(C)CCC(CN2CCN(c3ccc(C(=O)NS(=O)(=O)c4ccc(NCC5CCOCC5)c([N+](=O)[O-])c4)c(Oc4cnc5[nH]ccc5c4)c3)CC2)=C(c2ccc(Cl)cc2)C1 + Cc1nc(NC(=O)N2CCCC2C(N)=O)sc1-c1ccnc(C(C)(C)C(F)(F)F)c1
3. CCN1CCN(Cc2ccc(Nc3ncc(F)c(-c4cc(F)c5nc(C)n(C(C)C)c5c4)n3)nc2)CC1 + CC(Nc1ncnc2nc[nH]c12)c1cc2cccc(Cl)c2c(=O)n1-c1ccccc1

Reply:
106
92.1
53.7
